This collection of values is drawn from ChEMBL document CHEMBL3259690.

test_name: Half life in syrian golden hamster liver S9 fraction at 10 uM in presence of NADPH
Format: ADME, subcellular, Mesocricetus auratus
observed_property: half-life at 10 µM (min)
Provide only the numeric value, understood in min.

Would you kindly share the measured half-life at 10 µM for CC(C)=CCCC1(C)C=Cc2c(ccc(C(=O)/C=C/c3cccnc3)c2O)O1 (stereo unspecified) ?
37.8

----------
test_name: Terminal half life in Syrian golden hamster at 100 mg/kg, po administered via gavage as single dose by HPLC-UV analysis
Format: ADME, organism-based, Mesocricetus auratus
Design: dose 100 mg/kg, route oral
experimental_conditions: in vivo, read-out: beta t1/2 (converted)
observed_property: half-life (h)
The figure you give is taken to be in h; do not add the unit.

So what's the measured half-life for this one? CC(C)=CCCC1(C)C=Cc2c(ccc(C(=O)/C=C/c3cccnc3)c2O)O1 (stereo unspecified)
7.4

----------
test_name: Cmax in Syrian golden hamster at 100 mg/kg, po administered via gavage as single dose by HPLC-UV analysis
Assay type: ADME, organism-based, Mesocricetus auratus
Parameters: dose 100 mg/kg, route oral
experimental_conditions: in vivo
observed_property: Cmax
Express your answer as a number followed by its unit.

Given the compound CC(C)=CCCC1(C)C=Cc2c(ccc(C(=O)/C=C/c3cccnc3)c2O)O1 (stereo unspecified) , what is its reported Cmax?
820 ng/mL

----------
test_name: Cytotoxicity against African green monkey Vero cells after 72 hrs by MTT assay
Assay type: cell-based
experimental_conditions: chlorocebus sabaeus
observed_property: CC50 at 72 h (µM)
Enter your answer as a number in µM; do not include the unit.

Fill in the blank: the reported CC50 at 72 h of CC(C)=CCCC1(C)C=Cc2c(ccc(C(=O)/C=C/c3cccnc3)c2OCCN2CCCCC2)O1 (configuration not stated) is ____.
65.2

// query: CC(C)=CCCC1(C)C=Cc2c(ccc(C(=O)/C=C/c3cc(C=O)ccc3O)c2O)O1 (configuration not stated)
59.4

Try this compound next: CC(C)=CCCC1(C)C=Cc2c(ccc(C(=O)/C=C/c3cccnc3)c2O)O1 (configuration not stated)
40.7

Now consider CC(C)=CCCC1(C)C=Cc2c(ccc(C(=O)/C=C/c3ccc(O)cc3)c2O)O1 (configuration not stated) .
190

And CC(=O)N1N=C(c2ccc3c(c2O)C=CC(C)(CCC=C(C)C)O3)CC1c1cccnc1 (configuration not stated) ?
88.5

Another compound to check: CC(C)=CCCC1(C)C=Cc2c(ccc(C(=O)CCc3cccnc3)c2O)O1 (configuration not stated)
266
